Molecular target: T1, cTnI quality control product recombinant protein (human, UniProt P19429 1-210, limits assumed)
T1 construct: the assay paragraphs only say cTnI; also called cardiac troponin I; cTnI antigen
T1 sequence (P19429 whole entry): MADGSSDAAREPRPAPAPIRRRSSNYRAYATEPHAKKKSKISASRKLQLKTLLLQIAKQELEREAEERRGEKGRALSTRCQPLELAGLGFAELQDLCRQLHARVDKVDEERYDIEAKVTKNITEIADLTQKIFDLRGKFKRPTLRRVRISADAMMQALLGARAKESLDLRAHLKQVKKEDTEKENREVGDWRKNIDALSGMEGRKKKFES
Test: AMC biosensor, antibody on sensor
endpoint: koff (s⁻¹)
Value expressed in s⁻¹; do not type the unit.

Request: Provide only the value of recorded koff for WT 1-3 (antibody, V domains shown) VH: QVQLQQSGTELAKPGASVKFSCKASDYTFTTYWMYWIKQRPGQGLEWIGYINPSTGHTEYNQKFKDKATLTADKSSSTAYMQLNSLTSEDSAVYYCARKYFGPFAMDYWGQGTSVTVSS VL: EIFLTQSPAIMSASPGEKVTMTCSASTSVSYAHWYQQKSGTSPKRWIYDSSKLASGIPVRFSGSGSGTSYSLTISSMEAEDAATYYCQNWSSNPYTFGGGTKLEIKR
Response: 0.000372

Request: Provide only the value of recorded koff for Mutation 1-42 (antibody, V domains shown) VH: QVQLQQSGTELAKPGASVKFSCKASGYTFTSYWMYWIKQRPGQGLEWIGYINPSSGHTDYNQKFKDKATLTADKSSSTAYMQLNSLTSEDSAVYYCARRYWGPFGMDYWGQGTSVTVSS VL: EIFLTQSPAIMSASPGEKVTMTCSASSTVSYVHWYQQKSGTSPKRWLYDTSKLASGIPVRFSGSGSGTSYSLTISSMEAEDAATYYCQQWSSNPYTFGGGTKLEIKR
Response: 0.000362

Request: Provide only the value of recorded koff for Mutation 1-26 (antibody, V domains shown) VH: QVQLQQSGTELAKPGASVKFSCKASGYTFTTYWMYWIKQRPGQGLEWIGYLNPSTGHTDYNQKFKDKATLTADKSSSTAYMQLNSLTSEDSAVYYCARRYWGPFGMDYWGQGTSVTVSS VL: EIFLTQSPAIMSASPGEKVTMTCSASSTVSYVHWYQQKSGTSPKRWLYDTSKLASGIPVRFSGSGSGTSYSLTISSMEAEDAATYYCQQWSSNPYTFGGGTKLEIKR
Response: 3.31e-05

These measurements were taken from patent US20220033483A1.
